Before we begin, note that these Kd values for human GST-DYRK1A (Homo sapiens, UniProt Q13627) originate from several publications.

Answered cases to consult:
What measured Kd goes with `Cc1cc(-c2ccc3ncc(-c4ccc(CN5CCCCC5)cc4)n3n2)ccn1` ?
101 to 500 nM

Now the same for `Cc1nc2ccc(-c3ccnc(N)c3)c(F)c2n1-c1ccc(N2CCOCC2)cc1`
0.5 to 100 nM

// same read-out, input: `Cc1nc2ccc(-c3cc[n+]([O-])cc3)nc2n1-c1ccc2c(c1)OCO2`
501 to 10000 nM

Same question, `Cc1nc2ccc(-c3ccncc3)nc2n1-c1ccc(CN2CCN(C)CC2)cc1` this time
0.5 to 100 nM

Also `Cc1nc2ccc(-c3ccncc3)nc2n1-c1ncc(CN2CCCC(F)(F)C2)s1` ?
0.5 to 100 nM

Try `CC(=O)N1CCN(c2cnc3ccc(-c4ccncc4)nn23)CC1` next.
501 to 10000 nM

Moving on to `Cc1nc2ncc(-c3ccnc(N)c3)nc2n1-c1ccc2[nH]cnc2c1`
101 to 500 nM

And the next one, `Nc1cc(-c2ccn3ncc(-c4ccc(CN5CCOCC5)s4)c3n2)ccn1` ?
101 to 500 nM

New cases:
Which Kd value belongs to `Cc1nc2ccc(-c3ccnc(N)c3)nc2n1-c1ccc(CN2CCCCC2)cc1` ?
0.5 to 100 nM

Let us now turn to `COc1cnc(-c2ccnc(N)c2)nc1`
101 to 500 nM

Similarly, `Cc1nc2ccc(-c3ccnc(N)c3)nc2n1-c1ccc(N2C[C@H](C)O[C@@H](C)C2)c(F)c1` ?
0.5 to 100 nM

Next entry: Cc1nc2ccc(-c3ccnc(N)c3)nc2n1-c1ccc(N2CCN(CC#Cc3ccc(N4CCC(C(=O)N5CCC(n6cc(CNc7cccc8c7C(=O)N(C7CCC(=O)NC7=O)C8=O)cn6)CC5)CC4)nc3)CC2)c(C(F)(F)F)c1 (centres unmarked)
10 to 100 nM

Next: `c1cc(-c2ccc3nnn(-c4ccc5[nH]cnc5c4)c3n2)ccn1`
0.5 to 100 nM

Quick one: `Fc1cc(-c2cnc3ccc(-c4ccncc4)nn23)ccc1CN1CCOCC1`
101 to 500 nM

Follow-up item: `Cc1nc2ccc(-c3ccncc3)nc2n1-c1ccc(CN2[C@@H]3COC[C@H]2CC(=O)C3)cc1`
101 to 500 nM

Try this molecule too: `Cc1ncsc1-c1ccc(CNC(=O)[C@@H]2C[C@@H](O)CN2C(=O)[C@@H](NC(=O)CCOCCOCCN2CCN(c3ccc(-n4c(C)nc5ccc(-c6ccnc(N)c6)nc54)cc3F)CC2)C(C)(C)C)cc1`
< 10 nM

Now consider `N#Cc1cccc(NC2=NN=C(c3ccc4[nH]c(=O)[nH]c4c3)CS2)c1` .
3800 nM

How about Cc1nc2ccc(-c3ccnc(N)c3)nc2n1-c1ccc(N2CCN(CCC#Cc3ccc(N4CCC(C(=O)N5CCC(n6cc(CNc7cccc8c7C(=O)N(C7CCC(=O)NC7=O)C8=O)cn6)CC5)CC4)nc3)CC2)c(F)c1 (centres unmarked) ?
10 to 100 nM

Quick one: `c1cc(-c2ccc3ncc(-c4ccc(CN5CCOCC5)cc4)n3n2)ccn1`
101 to 500 nM

Same question, `FC1(F)CCCN(Cc2ccc(-c3cnc4ccc(-c5ccncc5)nn34)cc2)C1` this time
501 to 10000 nM
